Molecular target: ternary complex CRBN/PROTAC/METTL3–14 (Homo sapiens, UniProt Q86U44+Q96SW2)
Construct: methyltransferase domains (MTD) of METTL3 (residues 354–580); His6 (N, cleaved yes); made in house; host or cells: METTL3-MTD/METTL14-MTD: baculovirus/Sf9; CRBN-TBD: E. coli Rosetta (DE3), co-expressed with BirA
Sequence (Q86U44 354-580): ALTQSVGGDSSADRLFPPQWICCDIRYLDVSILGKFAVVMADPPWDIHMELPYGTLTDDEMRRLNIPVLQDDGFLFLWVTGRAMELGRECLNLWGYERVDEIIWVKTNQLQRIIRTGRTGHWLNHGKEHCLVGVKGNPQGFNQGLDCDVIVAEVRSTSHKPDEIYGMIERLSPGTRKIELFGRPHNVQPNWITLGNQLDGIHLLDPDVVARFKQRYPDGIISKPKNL
Sequence (Q9HCE5 107-395 partner limits assumed): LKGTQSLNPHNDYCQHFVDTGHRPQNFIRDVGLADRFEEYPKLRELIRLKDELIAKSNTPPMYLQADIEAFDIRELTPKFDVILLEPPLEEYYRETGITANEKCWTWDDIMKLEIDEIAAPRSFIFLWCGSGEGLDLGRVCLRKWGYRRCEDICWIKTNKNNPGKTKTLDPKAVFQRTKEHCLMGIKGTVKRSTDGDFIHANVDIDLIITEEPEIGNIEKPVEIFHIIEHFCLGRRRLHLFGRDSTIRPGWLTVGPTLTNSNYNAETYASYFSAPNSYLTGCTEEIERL
Sequence (Q96SW2 318-442): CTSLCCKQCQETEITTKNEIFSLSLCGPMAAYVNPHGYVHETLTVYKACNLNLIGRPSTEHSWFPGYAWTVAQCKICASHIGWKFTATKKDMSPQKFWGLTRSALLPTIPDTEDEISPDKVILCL
Assay: FRET-based ternary complex formation assay (TCFA)
Assay type: binding
Conditions: TCFA, peak of the Hook curve
OUTCOME MEASURE: ECmax

>>> readout_value("CC1(C)CCN(Cc2cc(F)c(N3CC(=O)NC4(CCN(c5cc(NCCCNC(=O)CCCCCCCCn6cc(CNc7cccc8c7C(=O)N(C7CCC(=O)NC7=O)C8=O)nn6)ncn5)CC4)C3)cc2F)CC1 (stereo not drawn)")
"below 1 μM"
>>> readout_value("CC1(C)CCN(Cc2cc(F)c(N3CC(=O)NC4(CCN(c5cc(NCCN6CCN(C(=O)CCCCCCCNc7cccc8c7C(=O)N(C7CCC(=O)NC7=O)C8=O)CC6)ncn5)CC4)C3)cc2F)CC1 (stereo not drawn)")
"submicromolar"
>>> readout_value("CC1(C)CCN(Cc2cc(F)c(N3CC(=O)NC4(CCN(c5cc(NCCCNC(=O)CCCCCCCCNc6cccc7c6CN(C6CCC(=O)NC6=O)C7=O)ncn5)CC4)C3)cc2F)CC1 (stereo not drawn)")
"below 1 μM"
>>> readout_value("CC1(C)CCN(Cc2cc(F)c(N3CC(=O)NC4(CCN(c5cc(NCCCNC(=O)CCCCCCCCCCNc6cccc7c6CN(C6CCC(=O)NC6=O)C7=O)ncn5)CC4)C3)cc2F)CC1 (stereo not drawn)")
"below 1 μM"
>>> readout_value("CC1(C)CCN(Cc2cc(F)c(N3CC(=O)NC4(CCN(c5cc(NCCN6CCN(C(=O)CCCNc7cccc8c7C(=O)N(C7CCC(=O)NC7=O)C8=O)CC6)ncn5)CC4)C3)cc2F)CC1 (stereo not drawn)")
"submicromolar"
>>> readout_value("CC1(C)CCN(Cc2cc(F)c(N3CC(=O)NC4(CCN(c5cc(NCc6cccc(CNC(=O)CCCCCCCCCCn7cc(CNc8cccc9c8C(=O)N(C8CCC(=O)NC8=O)C9=O)nn7)c6)ncn5)CC4)C3)cc2F)CC1 (stereo not drawn)")
"submicromolar"
